So I've got a bunch of compounds here, and I need their LD50 values.
# ASSAY: Toxicity in ip dosed mouse
# Format: organism-based
# CONDITION INFO: in vivo
The answer is to be given in mg/kg; state only the numeric part.

Task: Need LD50 of COC1=C2C[C@@H](C)C[C@H](OC)[C@H](O)[C@@H](C)/C=C(\C)[C@H](OC(N)=O)[C@@H](OC)/C=C\C=C(/C)C(=O)NC(=CC1=O)C2=O , thanks.
Output: 1

Task: Can you check CO[C@@H]1C[C@@H](C[C@H]2CC[C@H](C)[C@H]([C@@H](C)C(=O)O)O2)O[C@]2(O[C@](C)([C@H]3CC[C@@](C)([C@@H]4O[C@@H]([C@H]5O[C@@](O)(CO)[C@H](C)C[C@@H]5C)C[C@@H]4C)O3)C[C@H]2C)[C@@H]1C next?
Output: 10
